Recorded values, source the supplement of paper PMC9170038.

# maps each entry to its apparent KD of MS2 coat protein
- System: MS2 coat protein
- test-name: apparent KD of MS2 coat protein; designed switch direction (-1 OFF switch, 1 ON switch): -1; higher = weaker reporter binding
- cond: input ligand: FMN 200 uM
Response body: numeric value in µM, unit text excluded.

Example entries and their recorded answers appear below.
{"sequence-chain": "UUUAGUUCAGGAUAUGUAGAUUUUAACAUGAGGAUCACCCAUGUAGAUCCUGAAUUAACUACAGAAGGGAGCAUUU [Mod of Brourd 16 - Jieux - Exclusion 5] (Eterna round: R97, puzzle: Exclusion 5)", "apparent KD of MS2 coat protein, µM": 0.0336}
{"sequence-chain": "UAAUGUAUAUAGGAUAUCUAGCUGGUAACAGCUAGAGAAGGAUGUACAUGAGGAUCACCCAUGUAAAUCUCAAU [Ex6/12-B2] (Eterna round: R97, puzzle: Exclusion 6)", "apparent KD of MS2 coat protein, µM": 0.0325}
{"sequence-chain": "ACAUGAGGAUCACCCAUGUCCGGCUGGUCCGUCUCGGCUGUCGAGGAUAUAGCUCGGUAUCCGCGCUAGAAGGCGGGAGCCGGA [Aenatbe mod 84] (Eterna round: R96, puzzle: Exclusion NG 3)", "apparent KD of MS2 coat protein, µM": 0.0453}
{"sequence-chain": "CACCGUUACACAGGAUAUCUUACAUGAGGAUCACCCAUGUAAUAAAUGAGAAUUUCGAAUGUAAAAGAGAAGGGUGGAAUCGGC [Ostracism 66 - Jieux - Exclusion NG 2] (Eterna round: R96, puzzle: Exclusion NG 2)", "apparent KD of MS2 coat protein, µM": 0.0731}
{"sequence-chain": "CUGCUCCGUGUAGGAUAUGCAUACUCCCACUAUGCAGAAGGACAUGAGGAUCACCCAUGUAUGUUAUUAUCACGUGUAGCGUCC [Design 17] (Eterna round: R96, puzzle: Exclusion NG 1)", "apparent KD of MS2 coat protein, µM": 0.0211}

Task: # query: apparent KD of MS2 coat protein of entry CGCACACAUGAGGAUCACCCAUGUGAGGAUAUCAUGCUUCGUAGUAAACUACGAAGUGUGAGAAGGCACAUGUU [Omei Ex1 D9] (Eterna round: R97, puzzle: Exclusion 1)
Output: 0.144

Task: # query: apparent KD of MS2 coat protein of entry CUAGUAUAUCAGGAUAUGAUUUUAUAUAUUGGAUCAGAAGGGAUGACAUGAGGAUCACCCAUGUUGAGGAGUGA [JR_Ex6_Sub039] (Eterna round: R97, puzzle: Exclusion 6)
Output: 0.257

Task: # query: apparent KD of MS2 coat protein of entry CACCGUUACUGAGGAUAUCGUACAUGAGGAUCACCCAUGUAAUAAAUGAGAAUUUCGGAUGUAUGCGAGAAGGCAGGAAUCGGC [Ostracism 36 - Jieux - Exclusion NG 2] (Eterna round: R96, puzzle: Exclusion NG 2)
Output: 0.0316

Task: # query: apparent KD of MS2 coat protein of entry ACGUACUCUGUAGGAUAUCGAUGAUGCAUGAUUCGAGAAGGACAUGAGGAUCACCCAUGUUUCAAAAGCAUACUAUGUGUAGUA [Design #2] (Eterna round: R96, puzzle: Exclusion NG 1)
Output: 0.0444

Task: # query: apparent KD of MS2 coat protein of entry GCUGGUCGAGGAUAUAUAUGACGUGCUUCGGCACGAAGGUCACAUGAGGAUCACCCAUGUAGAAGGUGACCAGC [E2/9-B1] (Eterna round: R97, puzzle: Exclusion 2)
Output: 0.11

Task: # query: apparent KD of MS2 coat protein of entry GAAUAGCAAGCGAGAUCCCACAUGAGGAUCACCCAUGUGCUCGUCUUAUAAAGUACUGUGACGAAAGUCACGGUACA [Mat - Sensor, turn-off var - Eli Mod - D12] (Eterna round: R97, puzzle: Sensor, turn-off variant 1)
Output: 0.0146

Task: # query: apparent KD of MS2 coat protein of entry GGAUCGAAUGUGAGGAUAUGCUGGUCCUUGGAUCAGCAGAAGGCACAUGAGGAUCACCCAUGUGAUCAAGAUCC [Eli bmx4 4.77] (Eterna round: R97, puzzle: Brourd's mod of Exclusion 4)
Output: 0.0583

Task: # query: apparent KD of MS2 coat protein of entry ACAUGAGGAUCACCCAUGUUUGGCUGGUUUUCUCCGGCUGUCGAGGAUAUAGUCCGGUAUCCGCGCUAGAAGGUGAGGGUCGGC [Aenatbe mod 3] (Eterna round: R96, puzzle: Exclusion NG 3)
Output: 0.0121

Task: # query: apparent KD of MS2 coat protein of entry CUGAGCAGACGGAGAUCCAACAUGAGGAUCACCCAUGUCUCAAAAGCUUUUUGCUCGUCUUAUCCUCCUCUGUUCAC [Esquitian 1] (Eterna round: R97, puzzle: Sensor, turn-off variant 1)
Output: 0.0264

Task: # query: apparent KD of MS2 coat protein of entry GAUCCUUUUACGGACGUCUCGAAACAUGAGGAUCACCCAUGUGAGGAUAUCUCCGAAAGGUCGGCAGAGAAGGCACAAUAACAA [MOD2 Eternabot solution 19 score 84.66] (Eterna round: R96, puzzle: Exclusion NG 3)
Output: 0.0294

Task: # query: apparent KD of MS2 coat protein of entry CCGGUAGCAUAGGAUAUCGCCAACGUUGUAGUACGAGAAGGGUGCACAUGAGGAUCACCCAUGUUUCCUGGCCG [Eternabot (L2) Solution 63] (Eterna round: R97, puzzle: Exclusion 6)
Output: 0.107

Task: # query: apparent KD of MS2 coat protein of entry AAACCCUGAGGAUAUACAUAACAACAAAUCCUCACGUGCCAACAUGAGGAUCACCCAUGUAGAAGGCAGGCCAA [Mod R3 Insanara 5 - Jieux - Exclusion 2] (Eterna round: R97, puzzle: Exclusion 2)
Output: 0.0492

Task: # query: apparent KD of MS2 coat protein of entry CCUCCGCAUUAGGAUAUCGUCACAGAAAUGUGACGAGAAGGAAUGACAUGAGGAUCACCCAUGUUAACGUGAUG [Mod of Brourd 15 - Jieux - Exclusion 6] (Eterna round: R97, puzzle: Exclusion 6)
Output: 0.276
